study.system: T1, ECF16_973
T1 chain: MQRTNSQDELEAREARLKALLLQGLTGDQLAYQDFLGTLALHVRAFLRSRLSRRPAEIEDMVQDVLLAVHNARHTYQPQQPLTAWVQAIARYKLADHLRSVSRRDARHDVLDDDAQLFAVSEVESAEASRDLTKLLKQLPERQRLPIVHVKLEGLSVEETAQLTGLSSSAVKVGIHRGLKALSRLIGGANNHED
parameter.measured: fold repression
Please give only the number in your answer, with no unit.

The following binders have reported results that may help.
| binder | parameter.measured | experimental.value |
| --- | --- | --- |
| AS15_524 (protein) MNFGVEDMIEHVPMEDKRKGAAALDEARLRQQAIGVKLRQMFDEVVNEPVPDEFLAILRKAERPAGGE | fold repression | 4.98 |
| AS25_1643_cl43 (protein) MTTDSNFNDPCRRQFSRDLPQKMARHTNEATGAMDMVKRDRFELLSAYLGGEVTAAERRQVEDWPANDVAVQRLYSRLLKLRQGIRTMPIPTAQQSPETTAEQVFAKVNRRSRLAWKLGGAAVAACVIGAVTNWLPGRQTGIPQLAQQPQEQPTQAVTTPDALPMIALNNPVIEIPKAAVASPTKFIQPQPQLGEIPPDIN | fold repression | 1.22 |
| AS22_4450 (protein) MELDDMKHAWQTLEQRLDQQAAQTGQLLGVVHEETVRSSLRPLWVAQTAQLLCALALAIVSARSWIPHTDQPVAVIGGVLLQAWCMALAISAMVQLQLLTQFNVAGPLLRTQHALARLRRWRTRVAPWLGVAFWVLWIAVADALWRALTGQTLPTDWLVLNLLVGVAGGIGTWLGFRRLQRAQHPWLERIDRAHAGTGVIRAERMLEEIARFQRD | fold repression | 1.71 |

Read the next record carefully.
Entry under review: AS04_1609 (protein) MNRTTEQRNAEVMKTIGLLDQMPRVEVDHLFRVRLMQRIEAMEVKKTSWSALPGGAFNPRLAFMALLLMLNIASALMLFMHGTPQATGSSGAIAESLTEDYGGPALSYYDDQTTIDR . Reported fold repression?
6.3
